Give measured Max inhibition for each item. Keep answers brief.
Test: Maximum inhibition of L-type calcium channel expressed in HEK tsa-201 cells from Patch Clamp analysis
Type: functional, HEK293

Ask | Bench note: what Max inhibition did COC(=O)C1=C(C)N=C(C)/C(=C(/O)OC)C1c1c(-c2ccc(Br)cc2)noc1C (centres undefined) show?
Reply | 88

Ask | Next molecule: CCOC(=O)C1=C(C)N=C(C)/C(=C(/O)OCC)C1c1c(-c2ccccc2Cl)noc1C (centres undefined)
Reply | 70

Ask | Now give it for COC(=O)C1=C(C)N=C(C)/C(=C(/O)OC)C1c1c(-c2ccc(Cl)cc2)noc1C (centres undefined) too.
Reply | 85

Ask | Request: CCOC(=O)C1=C(C)N=C(C)/C(=C(/O)OCC)C1c1c(-c2cccc(Cl)c2)noc1C (centres undefined)
Reply | 100

Ask | Cool, now CCOC(=O)C1=C(C)N=C(C)/C(=C(/O)OCC)C1c1c(-c2cc(Cl)ccc2OC)noc1C (centres undefined)
Reply | 33

Ask | And for CCOC(=O)C1=C(C)N=C(C)/C(=C(/O)OCC)C1c1c(C)noc1CCc1ccccc1 (centres undefined) ?
Reply | 100

Ask | // next record CCOC(=O)C1=C(C)N=C(C)/C(=C(/O)OCC)C1c1c(-c2ccccc2OC)noc1C (centres undefined)
Reply | 55

Ask | Entry CCOC(=O)C1=C(C)N=C(C)/C(=C(/O)OCC)C1c1c(C)noc1CCc1cccc(Br)c1 (centres undefined) please
Reply | 100

Ask | Please give the result for CCOC(=O)C1=C(C)N=C(C)/C(=C(/O)OCC)C1c1c(C)noc1CCc1ccc2ccccc2c1 (centres undefined) too.
Reply | 100

Data origin: ChEMBL document CHEMBL1145024
